Taken from patent US20190085054A1.

Assay system: T1, human MMP2 (pro-MMP2 activated with APMA) (human, UniProt P08253 30-660)
T1 sequence (looked up): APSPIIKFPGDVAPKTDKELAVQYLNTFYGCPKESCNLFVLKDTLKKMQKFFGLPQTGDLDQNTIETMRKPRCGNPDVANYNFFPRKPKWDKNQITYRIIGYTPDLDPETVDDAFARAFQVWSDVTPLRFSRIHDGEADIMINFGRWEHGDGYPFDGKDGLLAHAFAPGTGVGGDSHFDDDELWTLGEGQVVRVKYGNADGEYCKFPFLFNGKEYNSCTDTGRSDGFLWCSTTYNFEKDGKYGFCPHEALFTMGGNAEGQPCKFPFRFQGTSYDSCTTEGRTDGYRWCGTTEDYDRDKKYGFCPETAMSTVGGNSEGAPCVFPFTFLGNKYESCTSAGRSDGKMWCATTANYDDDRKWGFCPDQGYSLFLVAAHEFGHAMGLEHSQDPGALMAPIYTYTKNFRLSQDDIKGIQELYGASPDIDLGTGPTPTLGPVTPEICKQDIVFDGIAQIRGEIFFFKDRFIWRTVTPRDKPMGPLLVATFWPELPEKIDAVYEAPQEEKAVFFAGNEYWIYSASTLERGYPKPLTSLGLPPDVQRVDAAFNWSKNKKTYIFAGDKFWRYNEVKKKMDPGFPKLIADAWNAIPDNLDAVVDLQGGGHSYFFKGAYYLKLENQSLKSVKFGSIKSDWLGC
Assay name: cell-based or functional assay
Below, each of the binders is paired with its reported MMP2 Inhibition Shift value.
Numeric answer only, unit fold assumed.

Check out these entries, answers already filled in.
TIMP-3 mutein K45N, V47T, F57N, K94N, E96T, D110N, K112T, G173T, R186Q, K188Q (other) CTCSPSHPQDAFCNSDIVIRANVTGKKLVKEGPNGTLVYTIKQMKMYRGFTKMPHVQYIHTEASESLCGLNLTVNKYQYLLTGRVYNGTMYTGLCNFVERWDQLTLSQRKGLNYRYHLGCNCKIKSCYYLPCFVTSKNECLWTDMLSNFTYPGYQSKHYACIQQQGGYCSWYRGWAPPDKSIINATDP: 3
TIMP-3 mutein K45N, V47T, F57N, K94N, E96T, R138T, G173T (other) CTCSPSHPQDAFCNSDIVIRANVTGKKLVKEGPNGTLVYTIKQMKMYRGFTKMPHVQYIHTEASESLCGLNLTVNKYQYLLTGRVYDGKMYTGLCNFVERWDQLTLSQRKGLNYTYHLGCNCKIKSCYYLPCFVTSKNECLWTDMLSNFTYPGYQSKHYACIRQKGGYCSWYRGWAPPDKSIINATDP: 5
TIMP-3 mutein K45E, K50N, V52T, K94N, E96T, D110N, K112T, R138T, G173T (other) CTCSPSHPQDAFCNSDIVIRAEVVGKNLTKEGPFGTLVYTIKQMKMYRGFTKMPHVQYIHTEASESLCGLNLTVNKYQYLLTGRVYNGTMYTGLCNFVERWDQLTLSQRKGLNYTYHLGCNCKIKSCYYLPCFVTSKNECLWTDMLSNFTYPGYQSKHYACIRQKGGYCSWYRGWAPPDKSIINATDP: 2
TIMP-3 mutein K45N, V47T, F57N, K94N, E96T, D110N, K112T, R186N, K188T (other) CTCSPSHPQDAFCNSDIVIRANVTGKKLVKEGPNGTLVYTIKQMKMYRGFTKMPHVQYIHTEASESLCGLNLTVNKYQYLLTGRVYNGTMYTGLCNFVERWDQLTLSQRKGLNYRYHLGCNCKIKSCYYLPCFVTSKNECLWTDMLSNFGYPGYQSKHYACINQTGGYCSWYRGWAPPDKSIINATDP: 3
TIMP-3 mutein K50N, V52T, F57N, K94N, E96T, R138T, G173T (other) CTCSPSHPQDAFCNSDIVIRAKVVGKNLTKEGPNGTLVYTIKQMKMYRGFTKMPHVQYIHTEASESLCGLNLTVNKYQYLLTGRVYDGKMYTGLCNFVERWDQLTLSQRKGLNYTYHLGCNCKIKSCYYLPCFVTSKNECLWTDMLSNFTYPGYQSKHYACIRQKGGYCSWYRGWAPPDKSIINATDP: 2
TIMP-3 mutein K45S, F57N, H78N, Q80T, K94N, E96T, R138T, G173T (other) CTCSPSHPQDAFCNSDIVIRASVVGKKLVKEGPNGTLVYTIKQMKMYRGFTKMPNVTYIHTEASESLCGLNLTVNKYQYLLTGRVYDGKMYTGLCNFVERWDQLTLSQRKGLNYTYHLGCNCKIKSCYYLPCFVTSKNECLWTDMLSNFTYPGYQSKHYACIRQKGGYCSWYRGWAPPDKSIINATDP: 5

In the following, a different binder is considered.
Request: // query MMP2 Inhibition Shift value for entry TIMP-3 mutein K50N, V52T, F57N, K94N, E96T, D110N, K112T, R138T (other) CTCSPSHPQDAFCNSDIVIRAKVVGKNLTKEGPNGTLVYTIKQMKMYRGFTKMPHVQYIHTEASESLCGLNLTVNKYQYLLTGRVYNGTMYTGLCNFVERWDQLTLSQRKGLNYTYHLGCNCKIKSCYYLPCFVTSKNECLWTDMLSNFGYPGYQSKHYACIRQKGGYCSWYRGWAPPDKSIINATDP
Response: 1
